Task for the reader: assign each of the following molecules its reported fold induction at 5 µM.
- Test system: HMOX1
- Assay name: HMOX1 Protein Assay (immunostaining of HO-1 in NHLF cells, GE InCell 1000)
- Assay type: cell-based
- Applied conditions: Homo sapiens, fold change above DMSO treated cells, 5 μM compound, 16 h
- Experimental: Cell Culture. Normal Human Fibroblast (NHLF), were obtained from Lonza. Cultures of cells were maintained in Fibroblast Growth Medium (FGM-2) medium supplemented with 2% fetal bovine serum (FBS), Fibroblast Growth Factor (hFGF-B) 0.5 mL, Insulin 0.5 mL, gentamicin/amphotericin-B 0.5 mL at 37° C. in a humidified atmosphere of 5% CO2. […] HMOX1 Protein Assay. […] Plate was washed 5× with 1×PBS and read at Hoechst Ex.360 Em. […] Results analyzed using GE InCell Analyzer software. […]
Reply briefly: the number, and no unit.

Give recorded fold induction at 5 µM. "COCCNC(=O)c1ccc2c(c1)nc(Nc1nc3ccc(C(F)(F)F)cc3s1)n2C"
27.1

Return the recorded fold induction at 5 µM value; entry: "CN(C)N(C)C(=O)c1ccc2c(c1)nc(Nc1nc3ccc(OC(F)(F)F)cc3s1)n2C"
23.8

Consider the molecule "CCn1c(Nc2nc3ccc(OC(F)(F)F)cc3s2)nc2cc(S(=O)(=O)C(F)(F)F)ccc21" and give its recorded fold induction at 5 µM.
1.5

Identify fold induction at 5 µM associated with the molecule "CCn1c(Nc2nc3ccc(OC(F)(F)F)cc3s2)nc2cc(C(=O)NC)ccc21"
24.3

Read the entry "CN(C)C(=O)[C@@H]1CCCN1C(=O)CNC(=O)c1ccc2c(c1)nc(Nc1nc3ccc(Cl)cc3s1)n2C" and write its reported fold induction at 5 µM.
28

Return reported fold induction at 5 µM. Input molecule: "CNC(=O)c1ccc2c(c1)nc(Nc1nc3ccc(OC(F)(F)F)cc3s1)n2CCF"
23

Please look at this molecule and report its fold induction at 5 µM: "Cn1c(Nc2nc3ccc(OC(F)(F)F)cc3s2)nc2cc(C(=O)NCC(=O)N3C[C@H](O)[C@@H](O)C3)ccc21"
7.73

Find the measured fold induction at 5 µM of "COC(=O)c1ccc2c(c1)nc(Nc1nc3ccc(C(F)(F)F)cc3s1)n2C" and report it.
4.11

Look up and state reported fold induction at 5 µM for "CN(C)C(=O)CCCNC(=O)c1ccc2c(c1)nc(Nc1nc3ccc(Cl)cc3s1)n2C"
19.1

Let me know recorded fold induction at 5 µM for "CN(C)C(=O)CNC(=O)c1ccc2c(c1)nc(Nc1nc3ccc(C(F)(F)F)cc3s1)n2C" , thanks.
54.5

Determine from records and report fold induction at 5 µM for "CCN(CC)c1cc2c(cc1C(=O)NCCN1CCOCC1)nc(Nc1nc3ccc(OC(F)(F)F)cc3s1)n2C"
13

Specify measured fold induction at 5 µM for "CCn1c(Nc2nc3ccc(Cl)cc3s2)nc2cc(C(=O)NCCOC)ccc21" .
30.3

Determine from records and report fold induction at 5 µM for "CN(C)C(=O)[C@H]1CC[C@H](NC(=O)c2ccc3c(c2)nc(Nc2nc4ccc(Cl)cc4s2)n3C)CC1"
21.7

Please give measured fold induction at 5 µM of the following entry: "CCn1c(Nc2nc3ccc(Cl)cc3s2)nc2cc(C(=O)NCC(C)(C)OC)ccc21"
25.7

Please supply the value of reported fold induction at 5 µM for the item "CN(C)[C@@H]1CCN(C(=O)CNC(=O)c2ccc3c(c2)nc(Nc2nc4ccc(OC(F)(F)F)cc4s2)n3C)C1"
74.8

Please list fold induction at 5 µM recorded for the molecule "Cn1c(Nc2nc3ccc(OC(F)(F)F)cc3s2)nc2ccc(CC(N)=O)cc21"
15.6
